System: U-2 OS
test-method-notes: cell viability (CellTiter-Glo) relative to DMSO (% of control); higher = more viable
condition-description: 80 µM; 24 h
Lab note: cut-off is 30. Strictly less in cell viability is 1 (yes). Exactly 30 or more is 0 (no).

Consider the worked cases shown below.
COC1=CC=C(S(=O)(O/N=C2C=C(C(C(C)=C\2)=O)C)=O)C=C1    1 (yes)
CC(=O)c1c(O)c(C)c(O)c(Cc2c(O)c3c(c(C(=O)C=Cc4ccccc4)c2O)OC(C)(C)C=C3)c1O    0 (no)
CCCCCCCc1ccc(CCc2cccc(O)c2C(=O)O)cc1    1 (yes)

For `CC(C)([C@](C1=O)(C2=O)C/C=C(C)\C)[C@@H](C[C@]31C[C@@H](C(C)(OC3=C2C(C4=CC(O)=C(C=C4)O)=O)C)C/C=C(C)\C)C/C=C(C)\C` , is the recorded cell viability below the cut-off of 30?
1 (yes)

For `O=C(OCC)/C(C(OCC)=O)=C\CCCCCCCCCCCCCC` , is the recorded cell viability below the cut-off of 30?
0 (no)

For `O=C(/C(C(N1CC2=CC=CC=C2)=O)=C/C3=C(C)C=C(O)C=C3C)N(CC4=CC=CC=C4)C1=O` , is the recorded cell viability below the cut-off of 30?
1 (yes)

For `COc1ccc(/C(Cl)=C(/C=O)c2ccc(OC)cc2)cc1` , is the recorded cell viability below the cut-off of 30?
1 (yes)

For `CC1=CC(=O)c2ccccc2C1=O` , is the recorded cell viability below the cut-off of 30?
1 (yes)

For `C=C1C(=O)O[C@H](CCC)[C@H]1C(=O)O` , is the recorded cell viability below the cut-off of 30?
0 (no)

For `COc1ccc(/C(Cl)=C(\C=O)c2ccc(OC)cc2)cc1` , is the recorded cell viability below the cut-off of 30?
0 (no)

For `COc1cc(/C=C/c2cc(/C=C/c3ccc(O)c(OC)c3)n(-c3ccc(C(=O)[O-])cc3)n2)ccc1O.[Na+]` , is the recorded cell viability below the cut-off of 30?
0 (no)

For `Cc1cc2c(C(C)C)c(O)c(O)c(C=O)c2c(O)c1-c1c(C)cc2c(C(C)C)c(O)c(O)c(C=O)c2c1O` , is the recorded cell viability below the cut-off of 30?
1 (yes)

For CC(Cc1ccc(O)c(O)c1)C(C)Cc1ccc(O)c(O)c1 (stereo not given) , is the recorded cell viability below the cut-off of 30?
1 (yes)

For `CCCCCCCCCCCC1=C(O)C(=O)C=C(O)C1=O` , is the recorded cell viability below the cut-off of 30?
0 (no)

For `CCCCCCCCCCCCCCCc1cccc(O)c1C(=O)O` , is the recorded cell viability below the cut-off of 30?
0 (no)

For `c1cc(SSc2ccns2)sn1` , is the recorded cell viability below the cut-off of 30?
1 (yes)

For `Oc1cccc(O)c1O` , is the recorded cell viability below the cut-off of 30?
1 (yes)

For `COc1cc(/C=C/C(=O)CC(=O)/C=C/c2ccc(O)c(OC)c2)ccc1O` , is the recorded cell viability below the cut-off of 30?
0 (no)

For `CCCCCOc1ccc(/C=C\c2cccc(O)c2C(=O)O)cc1` , is the recorded cell viability below the cut-off of 30?
0 (no)
